# Test system: Staphylococcus epidermidis
# Method Summary: Antimicrobial activity against Staphylococcus epidermidis ATCC 12228 by broth dilution method
# Type: functional

{"Mol": "CC(C)C[C@@H]1NC(=O)[C@H](CCCN)NC(=O)[C@H](C(C)C)NC(=O)[C@H](CCCN)NC(=O)[C@@H]2CCCN2C(=O)[C@@H](Cc2ccccc2)NC(=O)[C@H](CCCN)NC(=O)[C@H](CC23CC4CC(CC(C4)C2)C3)NC(=O)[C@H](CCCN)NC(=O)[C@H](C(C)C)NC(=O)[C@H](CCCN)NC(=O)[C@@H]2CCCN2C(=O)[C@@H](Cc2ccccc2)NC(=O)[C@H](CCCN)NC1=O", "U": "µg/mL", "MIC": 8}
